# System: HL-60
# assay: Growth inhibition of human HL60 cells at 50 uM after 48 hrs by MTT assay
# Type: functional
# condition-parameters: HL-60, 48 h, read-out: GI
Class (by inhibition of growth at 50 µM) -- bin A: < 20%; bin B: ≥ 20% and < 80%; bin C: ≥ 80%

| input-smiles | assayed-system | assigned-category |
| --- | --- | --- |
| COc1ccc(/C=C/C(=O)c2cc3c(c4c2OC(C)(C)CC4)OC(C)(C)CC3)cc1 | HL-60 | bin A |
| CC1(C)CCc2cc(C(=O)/C=C/c3ccc(F)cc3)c3c(c2O1)CCC(C)(C)O3 | HL-60 | bin B |
| CC(=O)c1cc2c(c3c1OC(C)(C)CC3)OC(C)(C)CC2 | HL-60 | bin B |
| CC1(C)CCc2cc(C(=O)/C=C/c3ccccc3Cl)c3c(c2O1)CCC(C)(C)O3 | HL-60 | bin B |
| Cc1ccc(/C=C/C(=O)c2cc3c(c4c2OC(C)(C)CC4)OC(C)(C)CC3)cc1 | HL-60 | bin A |
| CC1(C)CCc2cc(C(=O)/C=C/c3ccc(C#N)cc3)c3c(c2O1)CCC(C)(C)O3 | HL-60 | bin C |
| COc1cc(OC)c(/C=C/C(=O)c2cc3c(c4c2OC(C)(C)CC4)OC(C)(C)CC3)c(OC)c1 | HL-60 | bin B |
| COc1ccc(OC)c(/C=C/C(=O)c2cc3c(c4c2OC(C)(C)CC4)OC(C)(C)CC3)c1 | HL-60 | bin B |
| CC1(C)CCc2cc(C(=O)/C=C/c3ccc([N+](=O)[O-])cc3)c3c(c2O1)CCC(C)(C)O3 | HL-60 | bin C |

###

# Test system: ASPC1
# assay: Growth inhibition of human AsPC1 cells at 50 uM after 48 hrs by MTT assay
# Type: functional
# condition-parameters: ASPC1, 48 h, read-out: GI

| input-smiles | inhibition of growth at 50 µM |
| --- | --- |
| CC1(C)CCc2cc(C(=O)/C=C/c3ccccc3)c3c(c2O1)CCC(C)(C)O3 | 17% |
| CC1(C)CCc2cc(C(=O)/C=C/c3ccc(C#N)cc3)c3c(c2O1)CCC(C)(C)O3 | 48% |
| CC1(C)CCc2cc(C(=O)/C=C/c3cccc([N+](=O)[O-])c3)c3c(c2O1)CCC(C)(C)O3 | 48% |
| CC(=O)c1cc2c(c3c1OC(C)(C)CC3)OC(C)(C)CC2 | 5% |
| CC1(C)CCc2cc(C(=O)/C=C/c3ccc(F)cc3)c3c(c2O1)CCC(C)(C)O3 | 28% |
| CC1(C)CCc2cc(C(=O)/C=C/c3ccc([N+](=O)[O-])cc3)c3c(c2O1)CCC(C)(C)O3 | 27% |
| CC1(C)CCc2cc(C(=O)/C=C/c3cccc(Cl)c3)c3c(c2O1)CCC(C)(C)O3 | 24% |
| CC1(C)CCc2cc(C(=O)/C=C/c3ccc(Br)cc3)c3c(c2O1)CCC(C)(C)O3 | 27% |

###

# System: HL-60
# assay: Growth inhibition of human HL60 cells at 50 uM after 48 hrs by MTT assay
# Type: functional
# condition-parameters: HL-60, 48 h, read-out: GI

| input-smiles | assayed-system | inhibition of growth at 50 µM |
| --- | --- | --- |
| CC1(C)CCc2cc(C(=O)/C=C/c3ccc(Br)cc3)c3c(c2O1)CCC(C)(C)O3 | HL-60 | 25% |
| CC1(C)CCc2cc(C(=O)/C=C/c3cccc([N+](=O)[O-])c3)c3c(c2O1)CCC(C)(C)O3 | HL-60 | 92% |
| CC1(C)CCc2cc(C(=O)/C=C/c3cccc(Cl)c3)c3c(c2O1)CCC(C)(C)O3 | HL-60 | 60% |
| CC1(C)CCc2cc(C(=O)/C=C/c3ccccc3)c3c(c2O1)CCC(C)(C)O3 | HL-60 | 32% |

###

Each record here notes measured inhibition of growth at 50 µM.
# Tested on: ASPC1
# assay: Growth inhibition of human AsPC1 cells at 50 uM after 48 hrs by MTT assay
# Assay type: functional
# condition-parameters: ASPC1, 48 h, read-out: GI

| input-smiles | inhibition of growth at 50 µM |
| --- | --- |
| CC1(C)CCc2cc(C(=O)/C=C/c3ccccc3Cl)c3c(c2O1)CCC(C)(C)O3 | 15% |
| COc1ccc(OC)c(/C=C/C(=O)c2cc3c(c4c2OC(C)(C)CC4)OC(C)(C)CC3)c1 | 2% |
| Cc1ccc(/C=C/C(=O)c2cc3c(c4c2OC(C)(C)CC4)OC(C)(C)CC3)cc1 | 2% |
| COc1ccc(/C=C/C(=O)c2cc3c(c4c2OC(C)(C)CC4)OC(C)(C)CC3)cc1 | 12% |
| COc1cc(OC)c(/C=C/C(=O)c2cc3c(c4c2OC(C)(C)CC4)OC(C)(C)CC3)c(OC)c1 | 5% |
